Target: T1, recombinant biotinylated human NKG2D (Example 5) (human, UniProt P26718 73-216, biotinylated)
T1 sequence: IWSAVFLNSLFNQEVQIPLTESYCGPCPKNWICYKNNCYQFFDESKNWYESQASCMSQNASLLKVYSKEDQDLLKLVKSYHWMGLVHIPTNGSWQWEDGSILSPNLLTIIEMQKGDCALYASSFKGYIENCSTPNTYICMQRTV
Assay: competition ELISA; NKG2D preincubated with antibody, MIC-B coated; EC50 estimated if no full plateau
Measured EC50 of individual entries
Dear colleague, please return just the value in mg/L, with no unit written.

For the binder anti-NKG2D antibody clone 320 (antibody, V domains shown, From transgenic rabbits; also called 320 IgG) VH: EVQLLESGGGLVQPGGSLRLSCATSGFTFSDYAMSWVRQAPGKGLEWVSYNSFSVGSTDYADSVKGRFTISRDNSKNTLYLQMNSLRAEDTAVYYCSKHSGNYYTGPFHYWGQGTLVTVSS VL: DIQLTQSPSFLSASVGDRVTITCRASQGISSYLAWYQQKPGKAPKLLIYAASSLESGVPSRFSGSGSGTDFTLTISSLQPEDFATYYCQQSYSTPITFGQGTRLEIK , what EC50 is on record?
0.067
